From: the supplement of paper PMC6757056

Each record here notes measured normalized RNA/DNA level with ligand (log10).
B1: library; a variant is named by its letters at N, in order (parent)
chain: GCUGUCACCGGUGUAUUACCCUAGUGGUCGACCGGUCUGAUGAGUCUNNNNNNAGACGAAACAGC

- Variants of: B1
- procedure summary: normalized RNA/DNA level with ligand (relative to sTRSVctl = 100) (log10 (% of sTRSVctl)); ligand: hypoxanthine (xanthine aptamer); higher = less ribozyme self-cleavage, higher mRNA level
- particulars: ligand concentration (+) RNA-Seq: 5 mM, HEK293T, reporter: mCherry (pCS4076), ligand present: yes
Reply with just the number.

Here is how some variants turned out for normalized RNA/DNA level with ligand (log10).
> print(dat)
                                        seq  measured.number
1  GCUGUCACCGGUGUAUUACCCUAGUGGUCGACCGGUCUGAUGAGUCUUUUUAGAGACGAAACAGC              1.9
2  GCUGUCACCGGUGUAUUACCCUAGUGGUCGACCGGUCUGAUGAGUCUGUGGAUAGACGAAACAGC             1.92
3  GCUGUCACCGGUGUAUUACCCUAGUGGUCGACCGGUCUGAUGAGUCUCACAGAAGACGAAACAGC             1.97
4  GCUGUCACCGGUGUAUUACCCUAGUGGUCGACCGGUCUGAUGAGUCUGAGCAGAGACGAAACAGC             1.67
5  GCUGUCACCGGUGUAUUACCCUAGUGGUCGACCGGUCUGAUGAGUCUUCUCCUAGACGAAACAGC             1.99

Lookup: What value of measured normalized RNA/DNA level with ligand (log10) is listed for GCUGUCACCGGUGUAUUACCCUAGUGGUCGACCGGUCUGAUGAGUCUUCUGUAAGACGAAACAGC ?
Found: 1.95

Lookup: Also GCUGUCACCGGUGUAUUACCCUAGUGGUCGACCGGUCUGAUGAGUCUUUUUCUAGACGAAACAGC , if possible.
Found: 1.99

Lookup: Also GCUGUCACCGGUGUAUUACCCUAGUGGUCGACCGGUCUGAUGAGUCUCCAAGCAGACGAAACAGC , if possible.
Found: 1.94

Lookup: Also GCUGUCACCGGUGUAUUACCCUAGUGGUCGACCGGUCUGAUGAGUCUGCUUGAAGACGAAACAGC , if possible.
Found: 1.92

Lookup: Also GCUGUCACCGGUGUAUUACCCUAGUGGUCGACCGGUCUGAUGAGUCUCCGCCUAGACGAAACAGC , if possible.
Found: 1.94

Lookup: Also GCUGUCACCGGUGUAUUACCCUAGUGGUCGACCGGUCUGAUGAGUCUUCUAUUAGACGAAACAGC , if possible.
Found: 1.93

Lookup: Also GCUGUCACCGGUGUAUUACCCUAGUGGUCGACCGGUCUGAUGAGUCUUUUUAAAGACGAAACAGC , if possible.
Found: 1.93

Lookup: Also GCUGUCACCGGUGUAUUACCCUAGUGGUCGACCGGUCUGAUGAGUCUCUAAGAAGACGAAACAGC , if possible.
Found: 1.95

Lookup: Also GCUGUCACCGGUGUAUUACCCUAGUGGUCGACCGGUCUGAUGAGUCUGCGAUGAGACGAAACAGC , if possible.
Found: 1.77

Lookup: Also GCUGUCACCGGUGUAUUACCCUAGUGGUCGACCGGUCUGAUGAGUCUUGGCGCAGACGAAACAGC , if possible.
Found: 2

Lookup: Also GCUGUCACCGGUGUAUUACCCUAGUGGUCGACCGGUCUGAUGAGUCUACAUGAAGACGAAACAGC , if possible.
Found: 1.91

Lookup: Also GCUGUCACCGGUGUAUUACCCUAGUGGUCGACCGGUCUGAUGAGUCUGGUCGUAGACGAAACAGC , if possible.
Found: 1.99
